TEST PROTOCOL: cell viability in Huh7 cells, primary screen, cytotoxicity control for HCV replication inhibitor project, CellTiter-Glo luminescence, basal, 48 h (AID 1143);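 note: Huh7 hepatoma cells carrying a hepatitis C replication reporter with no stimulus; test concentration not given here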
CONDITION LABEL: Huh7 HCV replicon, higher = more signal, called active from +8 up or from −8 down
VALUE TYPE: z-score
// return just the number, without any unit appended

Solved cases below.
INSERT INTO results (compound, value_type, numeric_result) VALUES
  ('COCCOC(=O)N1C(=O)[C@@]2(c3ccccc31)[C@H](c1ccccc1OCCO)N1[C@H](c3ccccc3)[C@H](c3ccccc3)OC(=O)[C@H]1[C@@H]2C(=O)N1CCN(c2ncccn2)CC1', 'z-score', -2.08),
  ('CN1C(=O)C2C=CC(C(O)c3ccc([N+](=O)[O-])cc3)N(N3CCCCC3)C2C1=O (configuration not stated)', 'z-score', 0.576),
  ('COc1ccc([Si](C)(C)[C@@H]2[C@@H](CCO)O[C@]3(C(=O)N(Cc4ccc(N(C=O)c5ccccc5)cc4)c4ccccc43)[C@H]2C)cc1', 'z-score', -6.2),
  ('COC(=O)[C@@]1(Cc2ccc(OC)cc2)[C@H]2c3cc(C(=O)N4CCCC4)n(CCN4CNCC4=O)c3C[C@H]2CN1C(=O)c1ccccc1', 'z-score', -0.508),
  ('C=C[C@H](CO[Si](CC)(CC)CC)N(Cc1ccc(OC(C)=O)c(OC)c1)S(=O)(=O)c1ccc(Br)cc1', 'z-score', -4.96),
  ('CC(C)N1C(=O)c2ccccc2[C@](C)(C(=O)NCCN2CCOCC2)[C@@H]1c1ccc(CO)cc1', 'z-score', 0.0068);

Exercise: Item O=C1N(Cc2ccccc2)c2ccccc2[C@@H]2OC(c3ccc(OCCCO)cc3)=N[C@]12CCS(=O)(=O)c1ccccc1 has what recorded z-score?
Solution: -2.24

Cited source: PubChem BioAssay
